All figures here come from the supplement of paper PMC4466140.

target: SpBbc1; test: SPOT peptide array binding signal intensity (averaged, normalized) (arbitrary units (background-subtracted, floor 0; scale differs between SH3 domains)); higher = stronger binding of the SH3 domain to the peptide
EXPERIMENTAL ENDPOINT: SPOT peptide array binding signal intensity
Answers are plain numbers.

KTITLEVESSDTIDN : 1
RPVPPPPPMRTTTEG : 40.5

Could you report SPOT peptide array binding signal intensity for every entry in the following list?
1. RMVRRRPLRVQFSAR
2. ISPPASPPPEFDFSK
3. SAPDIPPRSPNRNAH
4. ALRRRLPVTRSKINW
5. RSVKRPRRAPRPVVS
6. VRTRRRPPPPPIPST

Found:
1: 38.8; 2: 2.5; 3: 3.5; 4: 10; 5: 12; 6: 77.2
